# study_target: the molecule itself
# experiment_description: cross-linking; Ca2+-loaded proteins: 0.02% glutaric aldehyde, 16 h, 20 °C, protein 1 mg/mL, 20 mM Tricine-KOH pH 7.4, 50 mM KCl, 1 mM DTT, 1 mM CaCl2; SDS-PAGE, Coomassie, densitometry; self-association
readout: Monomer 20 kDa, % (%)
Supply the numeric figure in %, leaving out any unit text.

protein: human recoverin mutant Y86A (natural protein, UniProt P35243 1-200, looked up, myristoylated (fraction of non-myristoylated forms did not exceed 16%), recoverin, human, UniProt P35243, N-terminal 'black' cluster mutant; Parent construct as m1; source: E. coli, expressed and purified similarly to the rWT protein (phenyl-Sepharose, Toyopearl SuperQ-650M)) MGNSKSGALSKEILEELQLNTKFSEEELCSWYQSFLKDCPTGRITQQQFQSIYAKFFPDTDPKAYAQHVFRSFDSNLDGTLDFKEAVIALHMTTAGKTNQKLEWAFSLYDVDGNGTISKNEVLEIVMAIFKMITPEDVKLLPDDENTPEKRAEKIWKYFGKNDDDKLTEKEFIEGTLANKEILRLIQFEPQKVKEKMKNA
readout: Monomer 20 kDa, %
recorded_result: 35.8
//
protein: human recoverin mutant K119A (natural protein, UniProt P35243 1-200, looked up, myristoylated (fraction of non-myristoylated forms did not exceed 16%), recoverin, human, UniProt P35243, C-terminal 'gray' cluster mutant; Parent construct as m1; source: E. coli, expressed and purified similarly to the rWT protein (phenyl-Sepharose, Toyopearl SuperQ-650M)) MGNSKSGALSKEILEELQLNTKFSEEELCSWYQSFLKDCPTGRITQQQFQSIYAKFFPDTDPKAYAQHVFRSFDSNLDGTLDFKEYVIALHMTTAGKTNQKLEWAFSLYDVDGNGTISANEVLEIVMAIFKMITPEDVKLLPDDENTPEKRAEKIWKYFGKNDDDKLTEKEFIEGTLANKEILRLIQFEPQKVKEKMKNA
readout: Monomer 20 kDa, %
recorded_result: 19.5
//
protein: human recoverin mutant E169A (natural protein, UniProt P35243 1-200, looked up, myristoylated (fraction of non-myristoylated forms did not exceed 16%), recoverin, human, UniProt P35243, C-terminal 'black' cluster mutant; Parent construct as m1; source: E. coli, expressed and purified similarly to the rWT protein (phenyl-Sepharose, Toyopearl SuperQ-650M)) MGNSKSGALSKEILEELQLNTKFSEEELCSWYQSFLKDCPTGRITQQQFQSIYAKFFPDTDPKAYAQHVFRSFDSNLDGTLDFKEYVIALHMTTAGKTNQKLEWAFSLYDVDGNGTISKNEVLEIVMAIFKMITPEDVKLLPDDENTPEKRAEKIWKYFGKNDDDKLTAKEFIEGTLANKEILRLIQFEPQKVKEKMKNA
readout: Monomer 20 kDa, %
recorded_result: 16.1
//
protein: human recoverin mutant V122A (natural protein, UniProt P35243 1-200, looked up, myristoylated (fraction of non-myristoylated forms did not exceed 16%), recoverin, human, UniProt P35243, C-terminal 'gray' cluster mutant; Parent construct as m1; source: E. coli, expressed and purified similarly to the rWT protein (phenyl-Sepharose, Toyopearl SuperQ-650M)) MGNSKSGALSKEILEELQLNTKFSEEELCSWYQSFLKDCPTGRITQQQFQSIYAKFFPDTDPKAYAQHVFRSFDSNLDGTLDFKEYVIALHMTTAGKTNQKLEWAFSLYDVDGNGTISKNEALEIVMAIFKMITPEDVKLLPDDENTPEKRAEKIWKYFGKNDDDKLTEKEFIEGTLANKEILRLIQFEPQKVKEKMKNA
readout: Monomer 20 kDa, %
recorded_result: 15.8
//
protein: human recoverin mutant Q46A (natural protein, UniProt P35243 1-200, looked up, myristoylated (fraction of non-myristoylated forms did not exceed 16%), recoverin, human, UniProt P35243, N-terminal 'gray' cluster mutant; Parent construct as m1; source: E. coli, expressed and purified similarly to the rWT protein (phenyl-Sepharose, Toyopearl SuperQ-650M)) MGNSKSGALSKEILEELQLNTKFSEEELCSWYQSFLKDCPTGRITAQQFQSIYAKFFPDTDPKAYAQHVFRSFDSNLDGTLDFKEYVIALHMTTAGKTNQKLEWAFSLYDVDGNGTISKNEVLEIVMAIFKMITPEDVKLLPDDENTPEKRAEKIWKYFGKNDDDKLTEKEFIEGTLANKEILRLIQFEPQKVKEKMKNA
readout: Monomer 20 kDa, %
recorded_result: 31.9

Q: Give the measured Monomer 20 kDa, % for human recoverin mutant F35A (natural protein, UniProt P35243 1-200, looked up, myristoylated (fraction of non-myristoylated forms did not exceed 16%), recoverin, human, UniProt P35243, N-terminal 'black' cluster mutant; Parent construct as m1; source: E. coli, expressed and purified similarly to the rWT protein (phenyl-Sepharose, Toyopearl SuperQ-650M)) MGNSKSGALSKEILEELQLNTKFSEEELCSWYQSALKDCPTGRITQQQFQSIYAKFFPDTDPKAYAQHVFRSFDSNLDGTLDFKEYVIALHMTTAGKTNQKLEWAFSLYDVDGNGTISKNEVLEIVMAIFKMITPEDVKLLPDDENTPEKRAEKIWKYFGKNDDDKLTEKEFIEGTLANKEILRLIQFEPQKVKEKMKNA
A: 37.4
